I'd appreciate it if you could supply Kd values for the items below.
measured target: C. albicans CYP51F1 D116E mutant (Candida albicans, UniProt P10613, D116E)
experiment: Spectral binding titration of purified CYP51F1 D116E mutant
One number for each entry, in nM.

# example entries with known answers
OC(Cn1cncn1)(Cn1cncn1)c1ccc(F)cc1F = 30
CC(=O)N1CCN(c2ccc(OCC3COC(Cn4ccnc4)(c4ccc(Cl)cc4Cl)O3)cc2)CC1 (stereo not shown) = 430

Fill in Kd for each of the 2 compounds listed.
1. Clc1ccc(COC(Cn2ccnc2)c2ccc(Cl)cc2Cl)cc1 (stereo not shown)
2. CCC(C)n1ncn(-c2ccc(N3CCN(c4ccc(OCC5COC(Cn6cncn6)(c6ccc(Cl)cc6Cl)O5)cc4)CC3)cc2)c1=O (stereo not shown)

**A:**
1: 140; 2: 150

###

measured target: C. albicans CYP51F1 F105L mutant (Candida albicans, UniProt P10613, F105L)
experiment: Spectral binding titration of purified CYP51F1 F105L mutant
Please go through the items and note down their pKd.
Numbers only, as −log10 of the molar value.

Give pKd for each listed item.
1. CC(=O)N1CCN(c2ccc(OCC3COC(Cn4ccnc4)(c4ccc(Cl)cc4Cl)O3)cc2)CC1 (stereo not shown)
2. Clc1ccc(COC(Cn2ccnc2)c2ccc(Cl)cc2Cl)cc1 (stereo not shown)
3. OC(Cn1cncn1)(Cn1cncn1)c1ccc(F)cc1F
4. CCC(C)n1ncn(-c2ccc(N3CCN(c4ccc(OCC5COC(Cn6cncn6)(c6ccc(Cl)cc6Cl)O5)cc4)CC3)cc2)c1=O (stereo not shown)

**A:**
6.77
7.00
7.70
6.80

###

measured target: C. albicans CYP51F1 wild-type (Candida albicans)
pKd: −log10 of the molar value.
Answer NO if pKd is under 7, and YES if it is 7 or more.

Previously resolved entries follow.
CCC(C)n1ncn(-c2ccc(N3CCN(c4ccc(OCC5COC(Cn6cncn6)(c6ccc(Cl)cc6Cl)O5)cc4)CC3)cc2)c1=O (centres unmarked) [Itraconazole, itraconazole] = NO
CC(=O)N1CCN(c2ccc(OCC3COC(Cn4ccnc4)(c4ccc(Cl)cc4Cl)O3)cc2)CC1 (centres unmarked) [Ketoconazole, ketoconazole] = NO
Clc1ccc(COC(Cn2ccnc2)c2ccc(Cl)cc2Cl)cc1 (centres unmarked) [Econazole, econazole] = NO
OC(Cn1cncn1)(Cn1cncn1)c1ccc(F)cc1F [Fluconazole, fluconazole] = YES

**Q:** Can CC(C)=CCC[C@@H](C)[C@H]1CC[C@@]2(C)C3=C(CC[C@]12C)[C@@]1(C)CC[C@H](O)C(C)(C)[C@@H]1CC3 [lanosterol, Lanosterol] be said to have pKd at or above 7?
**A:** NO

###

measured target: C. albicans CYP51F1 Y132H mutant (Candida albicans, UniProt P10613, Y132H)
experiment: Spectral binding titration of purified CYP51F1 Y132H mutant
assay metric: pKd
One number for each entry, as −log10 of the molar value.

# batch size: 3; output pKd per entry
1. OC(Cn1cncn1)(Cn1cncn1)c1ccc(F)cc1F [Fluconazole, fluconazole]
2. CC(=O)N1CCN(c2ccc(OCC3COC(Cn4ccnc4)(c4ccc(Cl)cc4Cl)O3)cc2)CC1 (stereo not drawn) [Ketoconazole, ketoconazole]
3. Clc1ccc(COC(Cn2ccnc2)c2ccc(Cl)cc2Cl)cc1 (stereo not drawn) [Econazole, econazole]

**A:**
6.82
6.27
6.38
